B1: CPEB3 Ribozyme (parent)
chain: GGGGGCCACAGCAGAAGCGUUCACGUCGCGGCCCCUGUCAGAUUCUGGUGAAUCUGCGAAUUCUGCUGU

- Variants of: B1
- Assay procedure: self-cleavage, relative activity (ratio to wild type); higher = more cleavage; co-transcriptional
Property: self-cleavage
Answer with a number only.

Solved cases (5 shown):
Alteration: A15G C34G
Reported value: 0.665
//
Alteration: C18G U38C
Reported value: 0.234
//
Alteration: U21A C57G
Reported value: 0.361
//
Alteration: G11C C32U
Reported value: 0.82
//
Alteration: G19C C45U
Reported value: 0.154

A40G U61G yielded self-cleavage of 0.823

Record G14U C63U , field self-cleavage: 0.893

Entry under test: C33A C54A . Its self-cleavage was 0.326

Documented self-cleavage of U43A G65C : 0.349

For G5C G30C the variant record lists self-cleavage as 0.124

For G5U C34A the variant record lists self-cleavage as 0.0978
